# test-method-notes: blockers of ER-stress CHOP reporter expression – cell-based, unfolded protein response, luciferase reporter, primary screen (AID 2732);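 further: 0% = tunicamycin plus vehicle and 100% = wells without tunicamycin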
# measurement-context: CHO-K1 CHOP-promoter luciferase, tunicamycin-induced, 15-18 h; at 10 µM; hits give high values
Among all 220,000 compounds or so, about 8,200 (3.7%) were called active. The sample holds actives, similar compounds and a random draw of the others, so the mix is not that of the screen.
Please note: true applies when inhibition is 5% or greater, and false applies otherwise.

CCOC(=O)C1C(c2ccc(OC)c(OC)c2)c2c([nH][nH]c2=O)CC1(C)O (stereo not drawn)	false
O=C(Cc1cccc2ccccc12)NCCC1=CCCCC1	true
Cc1ccccc1NC(=O)CNc1ccccc1N1CCCCC1	true
CCOc1cc(/C=C(/C#N)c2ccc(Cl)cc2)cc(Cl)c1OCC(=O)O	true
O=C(NC1CCCCC1)c1cc(C2CC2)on1	false
Cc1ccc(S(=O)(=O)/N=C(/NC(=S)Nc2c(C)n(C)n(-c3ccccc3)c2=O)c2ccccc2)cc1	true
Cc1cccc(C)c1OCC(O)CN1CCCCC1 (stereo not drawn)	true
O=C(COC(=O)/C=C/c1ccc2c(c1)OCO2)NC1CCS(=O)(=O)C1 (stereo not drawn)	true

###

# test-method-notes: blockers of ER-stress CHOP reporter expression – cell-based, unfolded protein response, luciferase reporter, primary screen (AID 2732);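 further: 0% = tunicamycin plus vehicle and 100% = wells without tunicamycin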
# measurement-context: CHO-K1 CHOP-promoter luciferase, tunicamycin-induced, 15-18 h; at 10 µM
Hit rate of the full screen: of about 220,000 compounds, about 8,200 (3.7%) were called active.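 Rule for the calls: active = compounds that reduced the stress-induced luciferase reporter signal by more than about 70% of percent inhibition (limit read from the data); inactive = the rest.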 This excerpt belongs to a sample that is enriched for actives.
Outcomes: active, inactive

COc1cc(/C=C2/C(=O)ON=C2C)ccc1OCc1cccc(F)c1	active
CCOc1ccc2nc(Nc3nc4ccc(NC(C)=O)cc4s3)sc2c1	active
CC(=O)C1=C(C)NC2=C(C(=O)CC(C)(C)C2)C1C (stereo unspecified)	inactive
c1ccc(-c2ccnc3nc(-n4cccc4)nn23)cc1	inactive
CCOCCn1c(-c2ccccc2)nc2ccccc21	inactive
CCS(=O)(=O)c1cc([N+](=O)[O-])c(Sc2ccccc2N)s1	inactive
CC#CC[N+](C)(C)CCCCCC	inactive
O=C1NC(=Nc2ccc(Cl)cc2)SC1Cc1cccc(Cl)c1Cl (stereo unspecified)	active
CC12CCC(C(=O)N3CCN(c4ncccn4)CC3)(c3nc4ccccc4nc31)C2(C)C (stereo unspecified)	active
Cc1c([N+](=O)[O-])c(N)nn1C	inactive
O=C(Cn1cnc2cc([N+](=O)[O-])ccc2c1=O)NC(=O)NCc1ccccc1	inactive
Cc1cnc(NC(=O)c2ccccn2)s1	inactive
CCNC(=S)N1CCN(c2ncccn2)CC1	inactive
O=C(/C=C/c1ccccc1)N/C(=C/c1ccccc1)C(=O)Nc1ccccc1O	inactive
O=c1oc2ccccc2cc1-c1csc(Nc2ccc(O)cc2)n1	inactive
Cc1nnsc1C(=O)N/N=C/c1ccccc1Cl	inactive
Cc1ccc(Nc2nc(-c3ccc(O)cc3O)cs2)nc1	active
O=C(Cc1c(F)cccc1Cl)Nc1ncc([N+](=O)[O-])s1	inactive
O=C(NCC1CCCO1)c1cc(-c2ccccc2)nc2ccccc12 (stereo unspecified)	inactive
CC1=NOC(=O)/C1=C\c1ccccc1	inactive
Cc1cc(F)ccc1NC(=O)C(C)n1c2ccccc2c2nc(=O)cc(C)n21 (stereo unspecified)	inactive
CN(CC(=O)Nc1ccccc1[N+](=O)[O-])Cc1ccc(Br)cc1	inactive
O=C(C(Cl)Cl)N1CCN(c2ccccn2)CC1	inactive
COc1ccc2nc(Nc3nc4ccc(NC(C)=O)cc4s3)sc2c1	inactive
O=c1c(-c2ccc(Cl)cc2)[n+]([O-])c2ccccc2n1OCc1nc2ccccc2[nH]1	inactive
CC(=O)OCCOCn1cnn2c(=O)c(Br)c(C)nc12	inactive
COc1cc(C2C(C#N)=C(C)NC3=C2C(=O)CC(C)(C)C3)ccc1O (stereo unspecified)	inactive
Cc1ccc(NC(=O)CN(C)Cc2ccc(F)cc2)c([N+](=O)[O-])c1	active
CCC1C(C#N)=C(SC)NC2=C1C(=O)CC(C)(C)C2 (stereo unspecified)	active
CCN1C(=O)/C(=C\N2CCN(c3ccccc3)CC2)SC1=S	inactive
COc1ccc(Nc2nc(NCc3ccco3)nc(N/N=C/c3ccccc3Cl)n2)cc1	inactive
S=c1[nH]nc(-c2cccnc2)n1/N=C/C(Cl)=C\c1ccccc1	inactive
COc1c(O)cc2oc(-c3ccc(O)c(O)c3)cc(=O)c2c1O	inactive
C[C@H](NC(=O)OC(C)(C)C)c1nnc(SCC(N)=O)o1	inactive
COc1ccc(-c2ccc(OC(=O)NC3CCS(=O)(=O)C3)cc2)cc1 (stereo unspecified)	inactive
NC1=NC(=O)C(Cc2cccc(Cl)c2Cl)S1 (stereo unspecified)	inactive

###

# test-method-notes: blockers of ER-stress CHOP reporter expression – cell-based, unfolded protein response, luciferase reporter, primary screen (AID 2732);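 further: 0% = tunicamycin plus vehicle and 100% = wells without tunicamycin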
# measurement-context: CHO-K1 CHOP-promoter luciferase, tunicamycin-induced, 15-18 h; at 10 µM; hits give high values
The whole screen tested about 220,000 compounds, of which about 8,200 (3.7%) were called active. The entries come from a sample that favours actives as a whole.
property-label: inhibition (%)

O=[N+]([O-])c1ccc(N/N=C2/CCCCC2c2ccccn2)c([N+](=O)[O-])c1 (stereo not given)	80.1
CCOC(=O)CC(=O)CSc1nc(-c2ccccc2)cc(-c2ccc(Cl)cc2)c1C#N	-3.89
S=c1nc2ccccc2c2nc(-c3cccnc3)[nH]n12	-22.9
O=C(NCC1COc2ccccc2O1)C1(c2ccccc2)CCCC1 (stereo not given)	17.7
CCOc1ccc2nc(/N=C/c3nc(-c4ccccc4)oc3O)sc2c1	73.9
CCCN(CC1COc2ccccc2O1)C(=S)Nc1ccc(C)cc1 (stereo not given)	28.3
CC(NC(=S)NNS(=O)(=O)c1ccc(C(C)(C)C)cc1)c1ccccc1 (stereo not given)	51.7
CC1CCN(c2ccc([N+](=O)[O-])c(SCCO)c2)CC1	7.43
S=C(NCC1COc2ccccc2O1)Nc1ccc(Br)cc1 (stereo not given)	81.2
O=C(NCCc1c[nH]c2ccc(Cl)cc12)c1ccc([N+](=O)[O-])cc1	-3.24
Nc1nnnn1/N=C/c1cc([N+](=O)[O-])ccc1O	6.19
O=C(CSc1nc2ccccc2s1)Nc1ccc(C(=O)O)cc1	-1.84
CCOc1ccc2nc(SC(CC)C(=O)Nc3cc(C)on3)sc2c1 (stereo not given)	27.5
CC(N=Cc1nc(-c2ccccc2)oc1O)c1ccccc1 (stereo not given)	28.4
CC(Sc1nc2ccccc2c(=O)n1Cc1ccco1)C(=O)c1ccccc1 (stereo not given)	16.2

###

# test-method-notes: blockers of ER-stress CHOP reporter expression – cell-based, unfolded protein response, luciferase reporter, primary screen (AID 2732);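 further: 0% = tunicamycin plus vehicle and 100% = wells without tunicamycin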
# measurement-context: CHO-K1 CHOP-promoter luciferase, tunicamycin-induced, 15-18 h; at 10 µM
Out of some 220,000 compounds screened, about 8,200 (3.7%) were called active.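 Rule for the calls: active = compounds that reduced the stress-induced luciferase reporter signal by more than about 70% of percent inhibition (limit read from the data); inactive = the rest.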 This is one part of a sample in which actives are shown more often than they occur.
Outcomes: active, inactive

COc1ccc(Cl)cc1NC(=O)CCN1CCOCC1	inactive
COC(=O)c1c(C)oc(C)c1S(=O)(=O)Nc1ccc(C(C)C)cc1	inactive
CC1=CC(C)(C)NC(=S)N1NC(=O)c1ccccc1Cl	inactive
Cc1cc(C(=O)CCl)c(C)n1CC1COc2ccccc2O1 (stereo not drawn)	active
CCc1nnc(NC(=O)c2sc3nc(C)cc(COC)c3c2N)s1	inactive
COc1ccc(-c2nn(C)c(=O)c3ccccc23)cc1CNC(=O)C1CCCCC1	inactive
CCc1nnc(NC(=O)c2cccc(S(=O)(=O)N(C)c3ccc(OC)cc3)c2)s1	inactive
Cc1nnsc1C(=O)NCc1c(F)cccc1Cl	inactive
Cc1cc(C)n(CC(C)NCc2c(C(=O)N3CCOCC3)nc3c(C)cccn23)n1 (stereo not drawn)	inactive
CN1CCN(c2cc3c(cc2F)c(=O)c(C(=O)O)cn3CCF)CC1	inactive
CCOC(=O)CN(Cc1ccc(OC)c(OC)c1)S(=O)(=O)c1ccc(OC)cc1	inactive
Nc1nc(SCc2ccccc2Cl)n[nH]1	inactive
Cn1c(=O)c2c(-c3cccc(Br)c3)c(C#N)c(N)nc2n(C)c1=O	inactive
CCn1cc(C(=O)NCC2COc3ccccc3O2)c2cc(OC)c(OC)cc2c1=O (stereo not drawn)	inactive
CCn1c(SCC(=O)Nc2cccc(F)c2)nnc1-c1cc2cc(Br)ccc2o1	active
Nc1nnn(CC(=O)N/N=C/c2ccccc2)n1	inactive
O=C(OCC(=O)c1cccs1)C1=COCCO1	inactive
CC(=O)N(OCc1ccc(OC(C)C)c(Cl)c1)C(C)=O	inactive
C/C(=N\NC(=S)NC(C)C)c1ccc(C(C)(C)C)cc1	active
COc1ccc2c(c1)C(=C(C#N)C#N)C(=O)N2CCc1ccccc1	inactive
CCSc1nc(C)nc2c1oc1ccccc12	active
COc1ccccc1/C=C/C=N/NC(=O)CN1CCN(Cc2ccccc2)CC1	inactive
Cc1noc(C)c1-c1nc(CSc2ccc(Cl)cc2)no1	inactive
CCc1ccc2nc3sc(C(=O)Nc4nnc(CC)s4)c(N)c3cc2c1	active
COc1ccc(C(CCN(Cc2ccc(OC)c(OC)c2)C(=O)CCl)c2ccccc2)cc1 (stereo not drawn)	active
CCCC(=O)NC(Nc1ccccc1OC)C(Cl)(Cl)Cl (stereo not drawn)	inactive
C=CCSc1nc(N)cc(=O)[nH]1	inactive
CCC(C)(C)c1ccc(Oc2ccc(NC(=O)COC(=O)C3=COCCO3)cc2)cc1	active
Cn1nccc1NC(=O)CC(CC(=O)O)c1ccccc1 (stereo not drawn)	inactive
Cc1cc(NC(=O)CCC2COc3ccccc3O2)no1 (stereo not drawn)	inactive
CCCCCCCC(=O)NC(Nc1ccccc1OC)C(Cl)(Cl)Cl (stereo not drawn)	active
CC(C)(C)C(=O)NC(NC(=S)Nc1ccc(S(N)(=O)=O)cc1)C(Cl)(Cl)Cl (stereo not drawn)	inactive
C=CC1C(OC2OC(CO)C(O)C(O)C2O)OC=C(C(=O)OC)C1CC1CC(=O)CC(CC(=O)CCc2ccc(O)cc2)O1 (stereo not drawn)	inactive
COc1ccc(NC(=O)COC(=O)CNC(=O)C2CCCCC2)cc1	inactive
CCN1CCN(C(c2cccnc2)c2cc(Cl)c3cccnc3c2O)CC1 (stereo not drawn)	inactive
Oc1ccc(/C=N/NC2=NCCCCC2)c(O)c1	inactive
CC1CC(C)(C)n2c(O)c(N=NC(N)=S)c3cccc1c32 (stereo not drawn)	inactive
CC1CCN(CCC(=O)Nc2ccccc2)CC1	inactive
